Method description: AUC (0 to 24 hrs) in Sprague-Dawley rat at 10 mg/kg, po
Format: ADME, organism-based
Parameters: time < 24 hr, dose 10 mg/kg, route oral
Conditions: plasma
Quantity: AUC(0-t) at 24 h
Field: value (include unit after the number)

Q) // lookup AUC(0-t) at 24 h for COc1ccc(N2C(=O)/C(=C/c3cc(Cl)c(O)c(Cl)c3)OC2=S)cc1
A) 4 µg·h/mL

###

Method description: Oral bioavailability in Sprague-Dawley rat at 10 mg/kg
Format: ADME, organism-based
Conditions: in vivo
Quantity: bioavailability
State the value with its unit after it.

Q) For COc1ccc(N2C(=O)/C(=C/c3cc(Cl)c(O)c(Cl)c3)OC2=S)cc1 , what is its reported bioavailability?
A) 5.5%

The reported numbers originate from ChEMBL document CHEMBL2016457.
